Provenance of the data: ChEMBL document CHEMBL1132669

Target: D(2) dopamine receptor (Rattus norvegicus, UniProt P61169)
Sequence (P61169 whole entry): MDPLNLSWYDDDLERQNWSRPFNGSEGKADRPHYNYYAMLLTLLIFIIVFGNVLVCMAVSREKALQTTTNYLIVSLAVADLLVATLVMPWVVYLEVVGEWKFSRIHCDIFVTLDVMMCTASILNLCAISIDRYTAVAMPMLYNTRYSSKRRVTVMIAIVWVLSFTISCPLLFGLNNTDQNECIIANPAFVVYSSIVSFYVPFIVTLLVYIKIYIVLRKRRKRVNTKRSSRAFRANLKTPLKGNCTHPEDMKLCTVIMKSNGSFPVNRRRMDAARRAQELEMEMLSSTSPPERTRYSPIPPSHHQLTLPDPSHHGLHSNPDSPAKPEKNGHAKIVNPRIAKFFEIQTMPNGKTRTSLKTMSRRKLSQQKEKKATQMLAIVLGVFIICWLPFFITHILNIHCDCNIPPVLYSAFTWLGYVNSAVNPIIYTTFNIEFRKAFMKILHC
Experiment: Inhibition of [3H]spiperone binding to rat striatal membrane Dopamine receptor D2 low affinity without GTP and sodium
// reported log10(Ki) per item
Scale type: logarithmic (base 10). Underlying Ki unit: nM.

FC(F)(F)c1nc2c(OCCNCc3ccccc3)cc(Cl)cc2[nH]1; 1.06
c1ccc(CNCCOc2cccc3[nH]ncc23)cc1; 1.56
FC(F)(F)c1nc2c(OCCNCc3ccccc3)cccc2[nH]1; 0.28

**Query** If you can, please state the reported log10(Ki) value of Cc1nc2c(OCCNCc3ccccc3)cccc2[nH]1 .
**Result** 1.42

**Query** What about this compound? Sc1nc2c(OCCNCc3ccccc3)cc(Cl)cc2[nH]1
**Result** 0.65

**Query** What about this compound? O=c1[nH]c2cccc(OCCNCc3ccccc3)c2[nH]1
**Result** 0.67

====

Target: D(2) dopamine receptor (Rattus norvegicus)
Test: Relative binding affinity for low and hugh affinity type dopamine D2 receptors in rat striatal membranes
Type: cell membranes
Conditions: Striatum, Membrane
Measured endpoint: Ratio
Give the value as a plain number.

Consider the worked cases shown below.
FC(F)(F)c1nc2c(OCCNCc3ccccc3)cc(Cl)cc2[nH]1; 16
Sc1nc2c(OCCNCc3ccccc3)cccc2[nH]1; 14
Oc1cccc(OCCNCc2ccccc2)c1; 28
c1ccc(CNCCOc2cccc3[nH]ncc23)cc1; 33
c1ccc(CNCCOc2cccc3[nH]cnc23)cc1; 13
Sc1nc2c(OCCNCc3ccccc3)cc(Cl)cc2[nH]1; 21

Next compound, please.
**Query** If you can, please state the reported Ratio value of c1ccc(CNCCOc2cccc3[nH]ccc23)cc1 .
**Result** 4

====

Target: D(2) dopamine receptor (Rattus norvegicus)
Test: Inhibition of [3H]quinpirole binding to rat striatal membrane Dopamine receptor D2 without GTP and sodium
Measured endpoint: Ki (nM)
The answer is to be given in nM; state only the numeric part.

Consider the worked cases shown below.
O=c1[nH]c2cccc(OCCNCc3ccccc3)c2[nH]1; 0.18
FC(F)(F)c1nc2c(OCCNCc3ccccc3)cccc2[nH]1; 0.18
O=c1[nH]c2cc(Cl)cc(OCCNCc3ccccc3)c2[nH]1; 0.25
c1ccc(CNCCOc2cccc3nc[nH]c23)cc1; 9.8
S=c1[nH]c2cccc(OCCNCc3ccccc3)c2[nH]1; 0.18
c1ccc(CNCCOc2cccc3[nH]ncc23)cc1; 1.1

**Query** If you can, please state the reported Ki value of FC(F)(F)c1nc2c(OCCNCc3ccccc3)cc(Cl)cc2[nH]1 .
**Result** 0.71

**Query** What about this compound? Sc1nc2c(OCCNCc3ccccc3)cc(Cl)cc2[nH]1
**Result** 0.21

**Query** What about this compound? Cc1nc2c(OCCNCc3ccccc3)cccc2[nH]1
**Result** 4.4

====

For UniProt P35462, measured log10(Ki) is reported for the entries below.
Sequence (P35462 whole entry): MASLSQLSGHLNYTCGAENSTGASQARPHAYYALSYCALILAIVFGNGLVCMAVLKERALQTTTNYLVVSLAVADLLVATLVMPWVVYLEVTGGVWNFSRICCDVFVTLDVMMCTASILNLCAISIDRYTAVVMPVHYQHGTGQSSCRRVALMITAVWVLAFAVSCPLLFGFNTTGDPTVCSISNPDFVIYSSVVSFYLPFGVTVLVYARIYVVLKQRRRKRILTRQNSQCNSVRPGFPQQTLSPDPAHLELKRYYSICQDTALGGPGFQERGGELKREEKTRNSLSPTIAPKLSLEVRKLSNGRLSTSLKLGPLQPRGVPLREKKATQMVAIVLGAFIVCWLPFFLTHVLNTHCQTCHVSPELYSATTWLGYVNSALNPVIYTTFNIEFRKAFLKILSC
Scale type: logarithmic (base 10). Underlying Ki unit: nM.

**Query** If you can, please state the reported log10(Ki) value of c1ccc(CNCCOc2cccc3[nH]ncc23)cc1 .
**Result** 0.94

**Query** What about this molecule? c1ccc(CNCCOc2cccc3[nH]ccc23)cc1
**Result** 1.29

**Query** What about this molecule? FC(F)(F)c1nc2c(OCCNCc3ccccc3)cccc2[nH]1
**Result** 0.06

**Query** What about this molecule? O=C1Cc2c(cccc2OCCNCc2ccccc2)N1
**Result** 0.45

**Query** What about this molecule? O=c1[nH]c2cc(Cl)cc(OCCNCc3ccccc3)c2[nH]1
**Result** 0.87

====

Molecular target: D(2) dopamine receptor (Homo sapiens, UniProt P14416)
Sequence (P14416 whole entry): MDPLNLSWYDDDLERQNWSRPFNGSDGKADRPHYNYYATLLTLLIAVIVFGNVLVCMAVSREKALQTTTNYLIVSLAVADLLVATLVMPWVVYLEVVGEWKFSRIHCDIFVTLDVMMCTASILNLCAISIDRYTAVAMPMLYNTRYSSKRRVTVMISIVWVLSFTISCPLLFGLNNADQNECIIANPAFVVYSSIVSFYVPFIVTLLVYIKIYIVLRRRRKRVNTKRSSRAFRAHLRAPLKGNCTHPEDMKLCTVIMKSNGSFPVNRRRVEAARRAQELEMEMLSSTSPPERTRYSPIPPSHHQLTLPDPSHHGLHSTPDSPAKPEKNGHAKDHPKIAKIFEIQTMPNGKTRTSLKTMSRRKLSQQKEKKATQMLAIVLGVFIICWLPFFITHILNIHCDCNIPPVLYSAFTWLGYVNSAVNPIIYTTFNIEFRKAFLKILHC
Experiment: Inhibition of [3H]spiperone binding to human Dopamine receptor D2 in CHO cell membranes
// reported log10 of Ki per item
Scale type: logarithmic (base 10). Underlying Ki unit: nM.

**Query** If you can, please state the reported log10 of Ki value of c1ccc(CNCCOc2cccc3nc[nH]c23)cc1 .
**Result** 1.93

====

// reported Ki per item
Target: D(4) dopamine receptor (Homo sapiens)
Sequence (P21917 whole entry): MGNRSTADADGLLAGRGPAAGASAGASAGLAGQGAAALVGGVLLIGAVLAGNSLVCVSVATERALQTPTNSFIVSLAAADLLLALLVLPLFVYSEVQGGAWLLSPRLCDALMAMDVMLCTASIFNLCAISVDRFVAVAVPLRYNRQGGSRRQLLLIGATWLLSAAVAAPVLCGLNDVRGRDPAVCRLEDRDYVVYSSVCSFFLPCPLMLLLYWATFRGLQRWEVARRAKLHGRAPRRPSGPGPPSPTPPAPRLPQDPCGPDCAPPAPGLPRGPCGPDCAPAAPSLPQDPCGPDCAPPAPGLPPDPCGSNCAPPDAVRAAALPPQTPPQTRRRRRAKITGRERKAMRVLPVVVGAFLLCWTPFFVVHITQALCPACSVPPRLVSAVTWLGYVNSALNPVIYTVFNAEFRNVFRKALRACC
The answer is to be given in nM; state only the numeric part.

Consider the worked cases shown below.
Cc1nc2c(OCCNCc3ccccc3)cccc2[nH]1; 61.1
c1ccc(CNCCOc2cccc3[nH]ccc23)cc1; 230
Sc1nc2c(OCCNCc3ccccc3)cc(Cl)cc2[nH]1; 11.2

**Query** If you can, please state the reported Ki value of FC(F)(F)c1nc2c(OCCNCc3ccccc3)cccc2[nH]1 .
**Result** 3.1

**Query** What about this compound? O=C1Cc2c(cccc2OCCNCc2ccccc2)N1
**Result** 10

====

Target: UniProtKB P61169
Assay: Relative binding affinity for low and hugh affinity type dopamine D2 receptors in rat striatal membranes
Assay type: cell membranes
Conditions: Striatum, Membrane
// reported Ratio per item
Give the value as a plain number.

Cc1nc2c(OCCNCc3ccccc3)cccc2[nH]1; 6
FC(F)(F)c1nc2c(OCCNCc3ccccc3)cccc2[nH]1; 10
O=C1Cc2c(cccc2OCCNCc2ccccc2)N1; 54

**Query** If you can, please state the reported Ratio value of Oc1nc2c(OCCNCc3ccccc3)cc(Cl)cc2[nH]1 .
**Result** 11

====

Biological target: D(2) dopamine receptor (Rattus norvegicus, UniProt P61169)
Assay: Inhibition of [3H]spiperone binding to rat striatal membrane Dopamine receptor D2 low affinity without GTP and sodium
Measured endpoint: pKi
Lab note — pKi values are minus log10 of concentrations in M.

Consider the worked cases shown below.
O=c1[nH]c2cc(Cl)cc(OCCNCc3ccccc3)c2[nH]1; 8.57
S=c1[nH]c2cccc(OCCNCc3ccccc3)c2[nH]1; 8.59

Next molecule, please.
**Query** If you can, please state the reported pKi value of c1ccc(CNCCOc2cccc3nc[nH]c23)cc1 .
**Result** 6.89

====

Biological target: D(2) dopamine receptor (Homo sapiens, UniProt P14416)
Assay: Inhibition of [3H]spiperone binding to human Dopamine receptor D2 in CHO cell membranes
Measured endpoint: log10 of Ki (log10 of the value in nM)
Scale type: logarithmic (base 10). Underlying Ki unit: nM.

Consider the worked cases shown below.
FC(F)(F)c1nc2c(OCCNCc3ccccc3)cc(Cl)cc2[nH]1; 1.51
FC(F)(F)c1nc2c(OCCNCc3ccccc3)cccc2[nH]1; 0.24

Next molecule, please.
**Query** What log10 of Ki appears in the records for this molecule with D(2) dopamine receptor (Homo sapiens, UniProt P14416)? c1ccc(CNCCOc2cccc3[nH]ncc23)cc1
**Result** 1.90

====

// reported Ki per item
Molecular target: D(2) dopamine receptor (Homo sapiens)
Experiment: Inhibition of [3H]spiperone binding to human Dopamine receptor D2 in CHO cell membranes
The answer is to be given in nM; state only the numeric part.

O=c1[nH]c2cc(Cl)cc(OCCNCc3ccccc3)c2[nH]1; 2.6

**Query** If you can, please state the reported Ki value of Cc1nc2c(OCCNCc3ccccc3)cccc2[nH]1 .
**Result** 15.2

**Query** What about this compound? Sc1nc2c(OCCNCc3ccccc3)cc(Cl)cc2[nH]1
**Result** 6.5

**Query** What about this compound? c1ccc(CNCCOc2cccc3[nH]ccc23)cc1
**Result** 81.8

**Query** What about this compound? S=c1[nH]c2cccc(OCCNCc3ccccc3)c2[nH]1
**Result** 3

**Query** What about this compound? O=C1Cc2c(cccc2OCCNCc2ccccc2)N1
**Result** 4.25
